Recorded values, source ChEMBL document CHEMBL4680060.

- System: Enterobacter cloacae
- assay.info: Antibacterial activity against Enterobacter cloacae 117029 assessed as inhibition of visible growth incubated for 18 hrs by CLSI protocol based microbroth dilution method
- Type: functional
A collection of compounds and their measured MIC
reported.property: MIC (mg/L)

smiles.str	bound.type	recorded.number
C[C@H]1COc2c(N3CCN(C)CC3)c(F)cc3c(=O)c(C(=O)N[C@H](CN)CCC(=O)O)cn1c23	>	128
C[C@H]1COc2c(N3CCN(C)CC3)c(F)cc3c(=O)c(C(=O)NCCCCCCCCCCCC(=O)N[C@@H](CCN)C(N)=O)cn1c23	=	128
C[C@H]1COc2c(N3CCN(C)CC3)c(F)cc3c(=O)c(C(=O)N[C@@H](CCN)C(=O)N[C@@H](CCN)C(N)=O)cn1c23	>	128
C[C@H]1COc2c(N3CCN(C)CC3)c(F)cc3c(=O)c(C(=O)N[C@@H](CCN)C(N)=O)cn1c23	>	128
C[C@H]1COc2c(N3CCN(C)CC3)c(F)cc3c(=O)c(C(=O)NCCCCCCCCCCCC(=O)N[C@@H](CCN)C(=O)N[C@@H](CCN)C(N)=O)cn1c23	=	128
C[C@H]1COc2c(N3CCN(C)CC3)c(F)cc3c(=O)c(C(=O)O)cn1c23.C[C@H]1COc2c(N3CCN(C)CC3)c(F)cc3c(=O)c(C(=O)O)cn1c23.O	=	0.125
C[C@H]1COc2c(N3CCN(C)CC3)c(F)cc3c(=O)c(C(=O)N[C@@H](CCC(=O)O)C(=O)N[C@H](CN)CCC(=O)O)cn1c23	>	128
